This collection of values is drawn from ChEMBL document CHEMBL5120900.

TARGET: Histone-lysine N-methyltransferase NSD2 (Homo sapiens, UniProt O96028)
Sequence (O96028 whole entry): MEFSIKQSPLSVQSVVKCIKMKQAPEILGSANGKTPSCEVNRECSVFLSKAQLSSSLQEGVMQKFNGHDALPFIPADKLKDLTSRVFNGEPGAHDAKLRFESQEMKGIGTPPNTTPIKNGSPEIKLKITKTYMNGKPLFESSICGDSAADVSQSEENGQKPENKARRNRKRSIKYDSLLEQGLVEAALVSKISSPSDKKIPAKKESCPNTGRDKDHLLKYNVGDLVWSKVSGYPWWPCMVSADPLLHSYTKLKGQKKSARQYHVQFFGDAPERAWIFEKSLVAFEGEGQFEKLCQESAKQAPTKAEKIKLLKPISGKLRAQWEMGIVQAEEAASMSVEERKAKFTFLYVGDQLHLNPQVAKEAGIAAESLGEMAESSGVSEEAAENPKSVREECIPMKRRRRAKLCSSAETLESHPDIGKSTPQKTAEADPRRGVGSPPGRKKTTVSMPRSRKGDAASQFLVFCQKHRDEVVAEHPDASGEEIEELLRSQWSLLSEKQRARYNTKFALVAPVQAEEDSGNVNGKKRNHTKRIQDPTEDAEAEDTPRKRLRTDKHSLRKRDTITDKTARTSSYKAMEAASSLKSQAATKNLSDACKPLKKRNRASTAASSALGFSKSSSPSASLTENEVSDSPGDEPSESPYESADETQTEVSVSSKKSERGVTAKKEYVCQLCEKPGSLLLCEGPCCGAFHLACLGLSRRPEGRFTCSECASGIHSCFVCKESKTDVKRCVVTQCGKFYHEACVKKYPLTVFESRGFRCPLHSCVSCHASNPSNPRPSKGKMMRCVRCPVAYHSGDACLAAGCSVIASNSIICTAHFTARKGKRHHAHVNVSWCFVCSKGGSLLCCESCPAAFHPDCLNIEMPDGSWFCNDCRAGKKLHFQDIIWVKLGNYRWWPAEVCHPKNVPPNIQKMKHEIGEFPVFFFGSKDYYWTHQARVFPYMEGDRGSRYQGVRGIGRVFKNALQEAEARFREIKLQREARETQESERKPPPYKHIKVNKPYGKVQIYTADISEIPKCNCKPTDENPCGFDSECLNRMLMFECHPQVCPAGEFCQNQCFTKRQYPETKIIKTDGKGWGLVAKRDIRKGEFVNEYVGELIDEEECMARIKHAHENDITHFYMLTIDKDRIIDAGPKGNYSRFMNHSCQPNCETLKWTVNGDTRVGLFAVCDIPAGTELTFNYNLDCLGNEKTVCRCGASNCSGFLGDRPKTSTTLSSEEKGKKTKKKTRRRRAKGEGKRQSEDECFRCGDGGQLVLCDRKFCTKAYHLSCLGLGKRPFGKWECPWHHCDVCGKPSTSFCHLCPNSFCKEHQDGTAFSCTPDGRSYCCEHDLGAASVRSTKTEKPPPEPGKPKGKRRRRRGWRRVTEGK
pIC50: −log10 of the molar value.
READOUT_TYPE: pIC50

Example entries and their recorded answers appear below.
Cc1cc(CO)cc(C)c1-c1ncn(C)c1-c1ccc(C#N)c2ccccc12
4.86
Cc1cc(CN)cc(C)c1-c1ncn(C)c1-c1ccc(C#N)c(N)c1
5.06
Cc1cc(CN2CCNCC2)cc(C)c1-c1ncn(C)c1-c1ccc(C#N)c2ccccc12
5.72
Cc1cc(CN)cc(C)c1-c1ncn(C)c1-c1ccc(C#N)c(Cl)c1
5.30
Cc1cc(CN)cc(C)c1-c1ncn(C)c1-c1ccc(C#N)c(C(F)(F)F)c1
4.81

[I] Cc1cc(CN)cc(C)c1-c1ncn(C)c1-c1ccc(C#N)c2ncccc12
[II] Cn1cnc(-c2ccc(CN)cc2F)c1-c1ccc(C#N)cc1
[III] Cc1cc(CNCCN)cc(C)c1-c1ncn(C)c1-c1ccc(C#N)c2ccccc12
[IV] Cc1cc(CN2CCC(N)CC2)cc(C)c1-c1ncn(C)c1-c1ccc(C#N)c2ccccc12
[in] Arrange the 4 compounds from largest to smallest pIC50. Answer by listing the labels in the order asked for.
[out] IV, III, I, II
(IV: 6.96, III: 6.21, I: 5.80, II: 4.95)
